System: 2-phenyl-1,4-benzoquinone-induced writhing
Assay: Analgesic activity, 2-phenyl-1,4-benzoquinone-induced writhing test in mice
Type: in vivo
Settings: Mus musculus, sc; read-out: ANALGESIC ACTIVITY (Phenylquinone Writhing) ED50
READOUT_TYPE: log10(ED50) (log10 of the value in mg/kg)
Plainly stated, the numbers are log10 of ED50 given in mg/kg.

query: Which measured log10(ED50) value corresponds to CCOc1ccc(CCN2CCC(C3Oc4ccccc4Cn4cccc43)CC2)cc1 (centres unmarked) ?
result: 0.28

query: Return reported log10(ED50); argument: CCCCN1CCC(C2Oc3ccccc3Cn3cccc32)CC1 (centres unmarked)
result: -0.40

query: Report log10(ED50) for c1ccc(OCCCN2CCC(C3Oc4ccccc4Cn4cccc43)CC2)cc1 (centres unmarked) please.
result: 0.62

query: Which log10(ED50) reading was recorded for the molecule CN(C)c1ccc(CCN2CCC(C3Oc4ccccc4Cn4cccc43)CC2)cc1 (centres unmarked) ?
result: -0.40

query: Recorded log10(ED50) of O=[N+]([O-])c1ccc(CCN2CCC(C3Oc4ccccc4Cn4cccc43)CC2)cc1 (centres unmarked) , please.
result: 0.61

query: Name the recorded log10(ED50) for O=C(O)C(=O)O.O=c1[nH]c2ccccc2n1CCCN1CCC(C2Oc3ccccc3Cn3cccc32)CC1 (centres unmarked) .
result: -0.52

query: Value lookup for log10(ED50); key = COc1ccc(CCN2CCC(C3Oc4ccccc4Cn4cccc43)CC2)cc1.O=C(O)C(=O)O (centres unmarked)
result: -0.52

query: Name the recorded log10(ED50) for COc1ccc(CCN2CCC(C3Oc4ccccc4Cn4cccc43)CC2)cc1OC (centres unmarked) .
result: -1.00

query: # input molecule: Fc1ccc2c(CCCN3CCC(C4Oc5ccccc5Cn5cccc54)CC3)noc2c1.O=C(O)C(=O)O (centres unmarked) ; wanted: its log10(ED50)
result: 0.71

query: Please report the recorded log10(ED50) for O=C(O)C(=O)O.O=c1[nH]c2ccccc2n1CCN1CCC(C2Oc3ccccc3Cn3cccc32)CC1 (centres unmarked) .
result: -0.05

query: For the molecule shown here, O=C(CCN1CCC(C2Oc3ccccc3Cn3cccc32)CC1)c1ccccc1.O=C(O)C(=O)O (centres unmarked) , give the reported log10(ED50).
result: 0.20
